Molecular target: T1, PSMA Fab (006 PSMA Fab) (biotinylated (site not stated))
T1 construct: In the clonal phage ELISA the biotinylated PSMA Fab was captured on neutravidin coated plates; also called Anti-PSMA Fab
Experiment: clonal phage ELISA on captured PSMA Fab pre-incubated with PSMA antigen as competitor;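 also: crude clonal phage supernatants added to wells without washing away the PSMA competitor, bound phage detected by HRP-conjugated anti-M13 antibody, reference wells received blocking buffer only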
Where no end group is shown, it is not given here.
Reported values of Phage binding ELISA signal, Anti-PSMA Fab with PSMA antigen for individual entries
QUANTITY KIND: Phage binding ELISA signal, Anti-PSMA Fab with PSMA antigen

BINDER: GHPICVPSWMCEGF [Phage-3373]
READOUT NUMBER: 0.0862
--
BINDER: PHAICKPAWMCVGL [Phage-3371]
READOUT NUMBER: 0.0913
--
BINDER: ESNFCVPAWMCTGF (cysteine pairing not given here; also: fused to pIII of bacteriophage) [Phage-3364]
READOUT NUMBER: 0.073
--
BINDER: DFAMCRPAWMCGGF (cysteine pairing not given here; also: fused to pIII of bacteriophage) [Phage-3372]
READOUT NUMBER: 0.0683
--
BINDER: FEMLCRPIWMCTGF [Phage-3365]
READOUT NUMBER: 0.14
--
BINDER: HTPICVPVWMCAGF (cysteine pairing not given here; also: fused to pIII of bacteriophage) [Phage-3369]
READOUT NUMBER: 0.0746
